test: Angle of repose (fluidity); format: physicochemical; conditions: crystal product without auxiliary materials
Result type: angle of repose (°)
Answer with a number only, understood to be in °.

Give angle of repose for CC1=C2CC[C@@](C)(O)[C@@H]2[C@H]2OC(=O)[C@@H](CN(C)C)[C@@H]2CC1.O=C(O)/C=C/C(=O)O [Example 1]
32.5

Report angle of repose, nothing else, for this compound: CC1=C2CC[C@@](C)(O)[C@@H]2[C@H]2OC(=O)[C@@H](CN(C)C)[C@@H]2CC1.O=C(O)/C=C/C(=O)O [Example 5]
32

Give angle of repose for CC1=C2CC[C@@](C)(O)[C@@H]2[C@H]2OC(=O)[C@@H](CN(C)C)[C@@H]2CC1.O=C(O)/C=C/C(=O)O [Example 7]
32

Give the value of angle of repose reported for the following: CC1=C2CC[C@@](C)(O)[C@@H]2[C@H]2OC(=O)[C@@H](CN(C)C)[C@@H]2CC1.O=C(O)/C=C/C(=O)O [Example 8]
32.1

Look up angle of repose of CC1=C2CC[C@@](C)(O)[C@@H]2[C@H]2OC(=O)[C@@H](CN(C)C)[C@@H]2CC1.O=C(O)/C=C/C(=O)O [crystalline form A, dimethylaminomicheliolide fumarate] and report it.
62

Give angle of repose for CC1=C2CC[C@@](C)(O)[C@@H]2[C@H]2OC(=O)[C@@H](CN(C)C)[C@@H]2CC1.O=C(O)/C=C/C(=O)O [Example 6]
32.3

Report measured angle of repose; entry is CC1=C2CC[C@@](C)(O)[C@@H]2[C@H]2OC(=O)[C@@H](CN(C)C)[C@@H]2CC1.O=C(O)/C=C/C(=O)O [Example 2]
32

Output measured angle of repose for this item: CC1=C2CC[C@@](C)(O)[C@@H]2[C@H]2OC(=O)[C@@H](CN(C)C)[C@@H]2CC1.O=C(O)/C=C/C(=O)O [Example 9]
32.3

Please list angle of repose recorded for the compound CC1=C2CC[C@@](C)(O)[C@@H]2[C@H]2OC(=O)[C@@H](CN(C)C)[C@@H]2CC1.O=C(O)/C=C/C(=O)O [hydrate of dimethylaminomicheliolide fumarate]
32

Return angle of repose (reported value) for this compound: CC1=C2CC[C@@](C)(O)[C@@H]2[C@H]2OC(=O)[C@@H](CN(C)C)[C@@H]2CC1.O=C(O)/C=C/C(=O)O [Example 4]
32.2

Dear colleague, please send me the reported angle of repose for CC1=C2CC[C@@](C)(O)[C@@H]2[C@H]2OC(=O)[C@@H](CN(C)C)[C@@H]2CC1.O=C(O)/C=C/C(=O)O [Example 3] when you can.
32

Hello, the source for this data is patent US12319666B2, in case you need it.
